Target: hCMV UL130 + UL131A (HEK293T co-transfectant) (hCMV, UniProt P16772 1-214)
Sequence (P16772 whole entry): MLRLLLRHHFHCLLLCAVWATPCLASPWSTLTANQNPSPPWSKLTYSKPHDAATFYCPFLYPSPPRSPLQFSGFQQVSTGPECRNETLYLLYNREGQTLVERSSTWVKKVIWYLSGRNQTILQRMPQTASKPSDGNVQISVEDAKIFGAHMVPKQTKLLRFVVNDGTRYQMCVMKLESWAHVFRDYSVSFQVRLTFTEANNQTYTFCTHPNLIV
Experiment: cell-based or functional assay
Examples of binders with documented 50% neutralization VR1814, MRC-9 follow.

binder	50% neutralization VR1814, MRC-9
4I22 (antibody, human IgG1, V domains shown, fully human IgG1 with unaltered Fc; also called 4I22-biotin; 4122) VH: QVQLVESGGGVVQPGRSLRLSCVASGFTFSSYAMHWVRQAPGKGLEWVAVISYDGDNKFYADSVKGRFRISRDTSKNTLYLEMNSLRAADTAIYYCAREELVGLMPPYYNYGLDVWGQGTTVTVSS VL: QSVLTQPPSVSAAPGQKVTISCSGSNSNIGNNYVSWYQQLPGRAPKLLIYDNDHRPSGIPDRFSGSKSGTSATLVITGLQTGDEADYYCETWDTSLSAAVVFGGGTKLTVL	> 2 µg/mL
10P3 (antibody, V domains shown, human IgG) VH: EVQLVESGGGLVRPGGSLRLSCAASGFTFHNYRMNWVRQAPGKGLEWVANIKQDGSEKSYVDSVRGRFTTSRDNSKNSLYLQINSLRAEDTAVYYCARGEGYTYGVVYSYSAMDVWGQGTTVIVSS VL: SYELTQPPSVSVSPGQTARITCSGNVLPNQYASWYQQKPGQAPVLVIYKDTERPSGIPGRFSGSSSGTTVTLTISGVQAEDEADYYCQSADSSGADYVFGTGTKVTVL	> 2 µg/mL
